target: beta-catenin (human); test: fluorescence polarization
Sequence (B6V8E6 146-665 limits assumed): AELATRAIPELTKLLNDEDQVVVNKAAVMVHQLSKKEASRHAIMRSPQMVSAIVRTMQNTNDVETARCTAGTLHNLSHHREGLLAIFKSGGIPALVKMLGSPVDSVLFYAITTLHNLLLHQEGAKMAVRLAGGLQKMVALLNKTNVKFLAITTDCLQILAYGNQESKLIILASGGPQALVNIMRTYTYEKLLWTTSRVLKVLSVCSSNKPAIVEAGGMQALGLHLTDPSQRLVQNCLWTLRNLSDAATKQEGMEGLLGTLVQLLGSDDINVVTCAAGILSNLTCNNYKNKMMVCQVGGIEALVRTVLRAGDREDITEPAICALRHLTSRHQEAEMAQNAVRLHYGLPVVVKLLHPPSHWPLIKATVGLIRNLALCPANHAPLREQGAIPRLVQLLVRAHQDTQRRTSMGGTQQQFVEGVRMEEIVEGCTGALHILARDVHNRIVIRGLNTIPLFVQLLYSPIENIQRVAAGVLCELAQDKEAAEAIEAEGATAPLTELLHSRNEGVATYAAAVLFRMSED
pIC50: −log10 of the molar value. *1 amine or outer side, *2 acyl side, *3 side chain or, on linkers, in order; H or OH if unused. Bridges are numbered along the chain shown (N, C = ends). Primed or numbered codes have the meaning given here. [ ]: non-standard residue; d: D form. PyrS2(6) = (S)-3-amino-1-((pent-4-en-1-yloxy)carbonyl)pyrrolidine-3-carboxylic acid, stapled with another olefin-containing amino acid residue through the olefin group, O=C(OCCCC=[*:3])N1CC[C@@](N[*:1])(C(=O)[*:2])C1; B5(4) = 2-amino-2-(pent-4-en-1-yl)hept-6-enoic acid, stapled through each of its two olefin groups with other olefin-containing amino acid residues, O=C(C(CCCC=[*:3])(CCCC=[*:4])N[*:1])[*:2]; PyrS2(3) = (S)-3-amino-1-((pent-4-en-1-yloxy)carbonyl)pyrrolidine-3-carboxylic acid, olefin residue, C=CCCCOC(=O)N1CC[C@@](N[*:1])(C(=O)[*:2])C1; B5(3) = 2-amino-2-(pent-4-en-1-yl)hept-6-enoic acid, two olefin arms, C=CCCCC(CCCC=C)(N[*:1])C(=O)[*:2]; 2F3MeF″ = aromatic residue, Cc1cccc(C[C@H](N[*:1])C(=O)[*:2])c1F; Phe(3-COOH) = N[C@@H](Cc1cccc(C(=O)O)c1)C(=O)O; Bta = N[C@@H](Cc1csc2ccccc12)C(=O)O; αAllylPro = C=CC[C@@]1(C(=O)O)CCCN1; tBuAla = CC(C)(C)C[C@H](N)C(=O)O; 3Thi = N[C@@H](Cc1ccsc1)C(=O)O; AsnR = not defined here; GlnR = not defined here
# reported pIC50; entries follow

- binder: "XDXXDXTAFKXXXQA (not fully specified; Ac-PL3-Asp-Npg-B5-Asp-3COOHF-Thr-Ala-Phe-Lys*3-PyrS2-2F3MeF-BztA-GlnR*3-Ala-NH2) [I-73]"
  pIC50: "> 7.30"
- binder: "Ac-[αAllylPro]D[tBuAla][B5(4)]D[Phe(3-COOH)]AAFK[PyrS2(6)][3Thi][Bta][GlnR]-NH2 (bridge 10-14; not fully specified (bridges); printed as Ac-PL3-Asp-Npg-B5-Asp-3COOHF-Ala-Ala-Phe-Lys*3-PyrS2-3Thi-BztA-GlnR*3-NH2; reading uncertain) [I-32]"
  pIC50: "> 7.30"

Okay, now this binder:
Ask: Write down pIC50 measured for item Ac-[αAllylPro]D[tBuAla][B5(3)]D[Phe(3-COOH)]QAFK[PyrS2(3)][2F3MeF″][Bta][AsnR]A-NH2 (bridge 10-14; not fully specified (bridges); printed as Ac-PL3-Asp-Npg-B5-Asp-3COOHF-Gln-Ala-Phe-Lys*3-PyrS2-2F3MeF-BztA-AsnR*3-Ala-NH2; reading uncertain) [I-61]
Result: > 7.30
